# MEASUREMENT_PROTOCOL: in vitro
# Assay type: in vitro ADME, male Wister rats
# COND: rat, 50 uM, pH 6
ASSAY_READOUT: Ratio of Effect (T 1/2)

Please review the entries below; each comes with its answer.
COMPOUND: Cc1c(-c2ccccc2)oc2c(C(=O)NCC(C)N3CCCCC3)cccc2c1=O (stereo not shown) [Compound 4]
Ratio of Effect (T 1/2): 1276.9
//
COMPOUND: CCN(CC)CCOC(=O)c1cccc2c(=O)c(C)c(-c3ccccc3)oc12 [Reference 2, reference compound]
Ratio of Effect (T 1/2): 2.3
//
COMPOUND: CCN(CC)CCNC(=O)c1cccc2c(=O)c(C)c(-c3ccccc3)oc12 [Compound 1]
Ratio of Effect (T 1/2): 1066.1

P. Cc1c(-c2ccccc2)oc2c(C(=O)OCCN3CCCCC3)cccc2c1=O [Reference 1, flavoxate, reference compound]
Q. CCN(CC)CCNC(=O)c1cccc2c(=O)c(C)c(-c3ccc(OC)cc3)oc12 [Compound 5]
R. Cc1c(-c2ccccc2)oc2c(C(=O)NCCN3CCCCC3)cccc2c1=O [Compound 2]
S. CCN(CC)CCN(C)C(=O)c1cccc2c(=O)c(C)c(-c3ccccc3)oc12 [Compound 3]
Rank items: key Ratio of Effect (T 1/2), increasing. Response format: the labels, sorted as the prompt asks.
P, S, R, Q
